Data credit: the supplement of paper PMC12783771

B1: library; a variant is named by its letters at X, in order (parent)
chain: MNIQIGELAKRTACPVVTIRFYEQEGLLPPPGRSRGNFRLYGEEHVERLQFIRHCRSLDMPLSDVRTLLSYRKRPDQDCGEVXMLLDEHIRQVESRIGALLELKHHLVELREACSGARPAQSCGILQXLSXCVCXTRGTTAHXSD

variants of: B1; assay: sfGFP reporter fluorescence (15 h) (µM FITC); higher = stronger transcriptional activation; settings: library round: Round 2; ligand: 1 µM Pb
Give Yes when the value for sfGFP reporter fluorescence is at least 0.1. Give No when it is less.

Request: // inclusive: sfGFP reporter fluorescence at least 0.1? input: TGDDP E109D E112K
Result: No

Request: // inclusive: sfGFP reporter fluorescence at least 0.1? input: SGMAP
Result: No

Request: // inclusive: sfGFP reporter fluorescence at least 0.1? input: NGDAP P61D D64K L107C
Result: Yes

Request: // inclusive: sfGFP reporter fluorescence at least 0.1? input: NGHAY
Result: No

Request: // inclusive: sfGFP reporter fluorescence at least 0.1? input: THDDW
Result: No

Request: // inclusive: sfGFP reporter fluorescence at least 0.1? input: NGTYP V133P
Result: Yes

Request: // inclusive: sfGFP reporter fluorescence at least 0.1? input: NIDDP L107C G124A
Result: Yes

Request: // inclusive: sfGFP reporter fluorescence at least 0.1? input: TGDDP V108L E112F
Result: No

Request: // inclusive: sfGFP reporter fluorescence at least 0.1? input: NIDDP I90L C134E
Result: No

Request: // inclusive: sfGFP reporter fluorescence at least 0.1? input: NMDDP R96G K104V
Result: No

Request: // inclusive: sfGFP reporter fluorescence at least 0.1? input: TGDRP L107C
Result: Yes

Request: // inclusive: sfGFP reporter fluorescence at least 0.1? input: NGADY V133A
Result: Yes

Request: // inclusive: sfGFP reporter fluorescence at least 0.1? input: NGDDP M60F P61N D64K K104V
Result: Yes

Request: // inclusive: sfGFP reporter fluorescence at least 0.1? input: NSEPP
Result: Yes

Request: // inclusive: sfGFP reporter fluorescence at least 0.1? input: NGADL L129V
Result: No
